For reference, pIC50 measured on PI3Kα (wild-type) (Homo sapiens):
pIC50: −log10 of the molar value.

compound: N#CCC(=O)Nc1cccc(-c2cnc3c(N4CCOCC4)nc(-c4cnc(N)nc4)nc3c2)c1
pIC50: > 7.30
//
compound: Nc1ncc(-c2nc(N3CCOCC3)c3ccc(-c4cccc(NC(=O)N5CCOCC5)c4)cc3n2)cn1
pIC50: 6.70 to 7.30
//
compound: CC(=O)Nc1cccc(-c2cnc3c(N4CCOCC4)nc(-c4cnc(N)nc4)nc3c2)c1C
pIC50: > 7.30
//
compound: Nc1ncc(-c2nc(N3CCOCC3)c3ncc(-c4ccco4)cc3n2)cn1
pIC50: > 7.30
//
compound: CC(=O)NC1CCN(Cc2ccc3c(N4CCOCC4)nc(-c4cnc(N)nc4)nc3c2)CC1
pIC50: 5.00 to 6.70
//
compound: CC(F)C(=O)Nc1cccc(-c2cnc3c(N4CCOCC4)nc(-c4cnc(N)nc4)nc3c2)c1 (centres unmarked)
pIC50: > 7.30
//
compound: Nc1ncc(-c2nc(N3CCOCC3)c3ncc(-c4ccc(C(=O)NC5CC5)cc4)cc3n2)cn1
pIC50: > 7.30
//
compound: CC(=O)Nc1cccc(-c2cnc3c(N4CCOCC4)nc(-c4cnc(N)nc4)nc3c2)c1F
pIC50: > 7.30
//
compound: Nc1ncc(-c2nc(N3CCOCC3)c3ncc(-c4cccc(NC(=O)C5CCCCC5)c4)cc3n2)cn1
pIC50: > 7.30
//
compound: Nc1ncc(-c2nc(N3CCOCC3)c3ncc(-c4cncc(NC(=O)C5CC5)c4)cc3n2)cn1
pIC50: > 7.30
//
compound: Nc1ncc(-c2nc(N3CCOCC3)c3ncc(-c4cccc(NC(=O)c5cnccn5)c4)cc3n2)cn1
pIC50: > 7.30
//
compound: CS(=O)(=O)Nc1cccc(-c2cnc3c(N4CCOCC4)nc(-c4cnc(N)nc4)nc3c2)c1
pIC50: > 7.30
//
compound: Nc1ncc(-c2nc(N3CCOCC3)c3ncc(-c4cccc(NS(=O)(=O)C5CC5)c4)cc3n2)cn1
pIC50: > 7.30
//
compound: CN(C)CC(=O)N1CCN(c2cccc(-c3cnc4c(N5CCOCC5)nc(-c5cnc(N)nc5)nc4c3)c2)CC1
pIC50: > 7.30
//
compound: CN1CCN(c2cccc(-c3cnc4c(N5CCOCC5)nc(-c5cnc(N)nc5)nc4c3)c2)CC1
pIC50: > 7.30
//
compound: CN(C)CCNC(=O)c1cccc(-c2cnc3c(N4CCOCC4)nc(-c4cnc(N)nc4)nc3c2)c1
pIC50: > 7.30
//
compound: Cn1cc(-c2cnc3c(N4CCOCC4)nc(-c4cnc(N)nc4)nc3c2)cn1
pIC50: > 7.30
//
compound: CS(=O)(=O)c1cncc(-c2ccc3c(N4CCOCC4)nc(-c4cnc(N)nc4)nc3c2)c1
pIC50: 5.00 to 6.70
//
compound: Cc1ccc(C(=O)Nc2ccc(F)c(-c3cnc4c(N5CCOCC5)nc(-c5cnc(N)nc5)nc4c3)c2)o1
pIC50: > 7.30
//
compound: CS(=O)(=O)c1cccc(-c2cnc3c(N4CCOCC4)nc(-c4cnc(N)nc4)nc3c2)c1
pIC50: > 7.30
//
compound: Nc1ncc(-c2nc(N3CCOCC3)c3ncc(-c4cccc(N5CCN(CCO)CC5)c4)cc3n2)cn1
pIC50: > 7.30
//
compound: Nc1ncc(-c2nc(N3CCOCC3)c3ncc(-c4ccc(NC(=O)c5ccco5)cc4)cc3n2)cn1
pIC50: > 7.30
//
compound: CC(O)C(=O)Nc1cccc(-c2ccc3c(N4CCOCC4)nc(-c4cnc(N)nc4)nc3c2)c1 (centres unmarked)
pIC50: 5.00 to 6.70

* * *

Consider the following molecules and their measured IC50 readings.
target-or-test-system: mTOR kinase (Homo sapiens, UniProt P42345)
Construct: purchased Millipore, USA
Sequence (P42345 1362-2549 limits assumed): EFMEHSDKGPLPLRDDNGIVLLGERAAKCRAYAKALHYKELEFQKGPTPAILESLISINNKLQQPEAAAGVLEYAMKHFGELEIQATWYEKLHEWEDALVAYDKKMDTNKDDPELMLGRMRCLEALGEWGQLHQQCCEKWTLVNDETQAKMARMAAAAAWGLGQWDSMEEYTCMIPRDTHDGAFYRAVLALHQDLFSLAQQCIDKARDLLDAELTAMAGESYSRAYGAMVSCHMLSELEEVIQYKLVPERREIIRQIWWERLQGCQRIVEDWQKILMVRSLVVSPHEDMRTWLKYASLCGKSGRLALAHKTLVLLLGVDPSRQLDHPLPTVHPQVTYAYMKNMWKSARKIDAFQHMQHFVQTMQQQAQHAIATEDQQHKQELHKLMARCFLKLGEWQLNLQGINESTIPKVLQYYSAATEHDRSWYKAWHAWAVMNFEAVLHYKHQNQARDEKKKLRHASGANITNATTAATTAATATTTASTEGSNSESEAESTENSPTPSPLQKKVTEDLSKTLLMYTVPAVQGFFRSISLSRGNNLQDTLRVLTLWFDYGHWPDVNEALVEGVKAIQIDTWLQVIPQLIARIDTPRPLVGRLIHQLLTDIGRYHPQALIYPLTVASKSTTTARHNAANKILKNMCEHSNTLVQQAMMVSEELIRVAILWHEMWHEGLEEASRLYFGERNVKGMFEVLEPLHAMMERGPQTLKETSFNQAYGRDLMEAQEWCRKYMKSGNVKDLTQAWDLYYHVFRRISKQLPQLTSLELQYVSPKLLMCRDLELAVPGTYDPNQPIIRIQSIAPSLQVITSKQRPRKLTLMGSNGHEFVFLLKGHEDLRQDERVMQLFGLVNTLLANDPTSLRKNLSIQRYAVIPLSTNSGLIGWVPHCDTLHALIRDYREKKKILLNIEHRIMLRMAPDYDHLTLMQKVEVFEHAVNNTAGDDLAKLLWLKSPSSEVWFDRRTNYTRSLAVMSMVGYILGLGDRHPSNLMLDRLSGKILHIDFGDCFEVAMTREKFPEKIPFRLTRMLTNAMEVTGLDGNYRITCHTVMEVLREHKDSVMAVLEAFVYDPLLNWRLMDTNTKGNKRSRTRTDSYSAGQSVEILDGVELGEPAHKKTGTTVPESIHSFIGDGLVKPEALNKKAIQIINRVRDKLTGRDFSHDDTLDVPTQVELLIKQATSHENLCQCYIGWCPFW
assay-text: mTOR kinase TR-FRET assay
Type: biochemical
measurement-setup: 20 μM ATP

mol: CS(=O)(=O)c1cncc(-c2ccc3c(N4CCOCC4)nc(-c4cnc(N)nc4)nc3c2)c1
IC50: 201 to 10000 nM
--
mol: Nc1ncc(-c2nc(N3CCOCC3)c3ncc(-c4cccc(NC(=O)c5cnccc5C(F)(F)F)c4)cc3n2)cn1
IC50: < 50 nM
--
mol: Nc1ncc(-c2nc(N3CCOCC3)c3ncc(-c4cccc(NC(=O)c5cccnc5)c4)cc3n2)cn1
IC50: < 50 nM
--
mol: Cc1ccc(-c2cnc3c(N4CCOCC4)nc(-c4cnc(N)nc4)nc3c2)o1
IC50: 50 to 200 nM
--
mol: N#CC1(C(=O)Nc2cccc(-c3cnc4c(N5CCOCC5)nc(-c5cnc(N)nc5)nc4c3)c2F)CC1
IC50: < 50 nM
--
mol: CC(C)C(=O)Nc1cccc(-c2cnc3c(N4CCOCC4)nc(-c4cnc(N)nc4)nc3c2)c1
IC50: < 50 nM
--
mol: CS(=O)(=O)c1cccc(-c2cc3nc(-c4cnc(N)nc4)nc(N4CCOCC4)c3cc2F)c1
IC50: 50 to 200 nM
--
mol: CN1CCN(CC(=O)Nc2cccc(-c3cnc4c(N5CCOCC5)nc(-c5cnc(N)nc5)nc4c3)c2)CC1
IC50: 50 to 200 nM
--
mol: Nc1ncc(-c2nc(N3CCOCC3)c3ncc(-c4ccc(NC(=O)c5cccnc5)cc4)cc3n2)cn1
IC50: < 50 nM
--
mol: CC(=O)Nc1ccc(F)c(-c2cnc3c(N4CCOCC4)nc(-c4cnc(N)nc4)nc3c2)c1
IC50: 50 to 200 nM
--
mol: Cc1cc(C(=O)Nc2cccc(-c3cnc4c(N5CCOCC5)nc(-c5cnc(N)nc5)nc4c3)c2)[nH]n1
IC50: < 50 nM

Attribution: patent US9145411B2
